System tested: T1, NPA1 (influenza A virus A/Taiwan/1/72 (H3N2), UniProt P16982 1-489)
T1 chain: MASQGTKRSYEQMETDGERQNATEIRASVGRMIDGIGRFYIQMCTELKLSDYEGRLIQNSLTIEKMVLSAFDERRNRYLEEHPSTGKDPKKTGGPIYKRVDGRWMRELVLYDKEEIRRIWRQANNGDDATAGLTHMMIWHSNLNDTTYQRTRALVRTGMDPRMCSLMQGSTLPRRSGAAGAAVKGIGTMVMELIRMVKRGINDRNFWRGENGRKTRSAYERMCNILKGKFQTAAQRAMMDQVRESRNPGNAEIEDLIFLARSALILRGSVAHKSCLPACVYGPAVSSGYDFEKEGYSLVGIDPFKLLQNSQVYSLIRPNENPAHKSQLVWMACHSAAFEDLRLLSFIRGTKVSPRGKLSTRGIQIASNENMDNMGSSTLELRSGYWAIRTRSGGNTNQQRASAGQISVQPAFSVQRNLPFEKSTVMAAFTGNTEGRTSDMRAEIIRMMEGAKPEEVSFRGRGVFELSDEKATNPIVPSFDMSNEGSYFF
Test details: ELISA on recombinant NP
Readout kind: pEC50
Scale for pEC50: -log10 of concentration given in mol/L; no unit attached.

Return reported pEC50. Input binder: NP14 (antibody, V domains shown) VH: EVQLVESGGGLVQPGGSLRLSCAASGFTIDNGGIHWVRQAPGKGLEWVASIWPSWGSTSYADSVKGRFTISADTSKNTAYLQMNSLRAEDTAVYYCARFNFGVFGVMDYWGQGTLVTVSS VL: DIQMTQSPSSLSASVGDRVTITCRASQDVDNDVAWYQQKPGKAPKLLIYGPRGLYSGVPSRFSGSGSGTDFTLTISSLQPEDFATYYCQQYSSWPLTFGQGTKVEIKR 9.72

Return reported pEC50. Input binder: NP10 (antibody, V domains shown) VH: EVQLVESGGGLVQPGGSLRLSCAASGFTIDNGSIHWVRQAPGKGLEWVAWIWPFGGSTSYADSVKGRFTISADTSKNTAYLQMNSLRAEDTAVYYCARSWSSGYDYWGQGTLVTVSS VL: DIQMTQSPSSLSASVGDRVTITCRASQDVSWSVAWYQQKPGKAPKLLISGSTWLYSGVPSRFSGSGSGTDFTLTISSLQPEDFATYYCQQYSNSPITFGQGTKVEIKR 9.44

Return reported pEC50. Input binder: NP4 (antibody, V domains shown) VH: EVQLVESGGGLVQPGGSLRLSCAASGFTISNSSIHWVRQAPGKGLEWVAGIGPSGGYTFYADSVKGRFTISADTSKNTAYLQMNSLRAEDTAVYYCARFHSHNSYYSYSHYGYMDYWGQGTLVTVSS VL: DIQMTQSPSSLSASVGDRVTITCRASQDVGWGVAWYQQKPGKAPKLLISGPSSLYSGVPSRFSGSGSGTDFTLTISSLQPEDFATYYCQQYFNYPITFGQGTKVEIKR 9.72
